Test system: HT29 colon
methodSummary: NCI tumour cell line growth inhibition, 48 h
measuredParameter: TGI (µM)
Write the number in µM without appending the unit.

# count of solved cases: 2
{"compound": "CC1=Nc2c([nH]c(=S)[nH]c2=O)NC(c2c(Cl)cccc2Cl)C1 (stereo not drawn)", "TGI, µM": 2.35}
{"compound": "COC(=O)C1OC(O[C@H]2CC[C@]3(C)[C@H]4CC=C5[C@@H]6CC(C)(C)CC[C@]6(C(=O)OC6OCC(O)C(O)C6OC6OC(C)C(OC7OCC(O)C(O)C7O)C(OC7OCC(O)(CO)C7O)C6O)[C@H](O)C[C@@]5(C)[C@]4(C)CC[C@H]3C2(C)C)C(O)C(O)C1O (stereo partly drawn)", "TGI, µM": 7.16}

Check the records and state TGI for Cc1nc2sc(C(=O)c3ccc(Cl)cc3)c(N)c2c(-c2ccccc2Cl)c1C(=O)Nc1ccccc1
31.3

Check the records and state TGI for O=C1N(Cc2ccccc2Cl)c2ccccc2C12NN=C(c1cccc(Cl)c1)S2 (stereo not drawn)
4.3
